experiment: growth inhibitors of isogenic TIM10 control yeast, primary screen, counter-screen for tim10-1 yeast inhibitor project, luminescence, uHTS (AID 463195);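 note: wild-type TIM10 isogenic control strain grown at permissive 25 °C; 0% = DMSO yeast wells and 100% = minimal medium wells without yeast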; details: S. cerevisiae TIM10 strain growth, BacTiter-Glo luminescence, 24 h; at 10 µM
Screen size: about 330,000 compounds; about 4,600 (1.4%) were called active.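 Rule for the calls: active = inhibition of 40% or more at the single tested concentration; inactive = the rest.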 This is one part of a sample in which actives are shown more often than they occur.
// classify into active, inactive

CCN1c2nc3c(C)cccn3c(=O)c2CC2(C(=O)N(C)C(=O)N(C)C2=O)C1C (stereo not drawn)	inactive

// next entry
query: What call does the record list for CC[C@H]1CC2CN3CCc4c([nH]c5ccccc45)C(C(=O)OC)(C2)C13 (stereo partly drawn) ?
result: inactive

----------
experiment: growth inhibitors of isogenic TIM10 control yeast, primary screen, counter-screen for tim10-1 yeast inhibitor project, luminescence, uHTS (AID 463195);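 note: wild-type TIM10 isogenic control strain grown at permissive 25 °C; 0% = DMSO yeast wells and 100% = minimal medium wells without yeast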; settings: S. cerevisiae TIM10 strain growth, BacTiter-Glo luminescence, 24 h; at 10 µM; hits give high values
Out of some 330,000 compounds screened, about 4,600 (1.4%) were called active. Many of the other results were omitted from the sample, so actives are more common in it than they were.
Recorded inhibition, one value per entry.
The reply should contain only the number, in %.

CCCCCn1c(=O)c(C(=O)Nc2c(C)n(C)n(-c3ccccc3)c2=O)c(O)c2ccccc21	24.7
COc1cccc(N2C(=O)NC(=O)/C(=C\c3ccc([N+](=O)[O-])s3)C2=O)c1	78.4
O=c1c2ccccc2nc(-c2ccccc2)n1-c1ccccn1	9.32
O=c1c2ccccc2nc(-c2ccco2)n1-c1ccc(Br)cn1	5.95
COc1ccc(N2C(=O)/C(=C/c3ccco3)C(=O)NC2=S)cc1	-0.32
CCN(CC)CCOC(=O)c1cc2cc(COC)ccc2o1	-10.2

query: Assign inhibition to the following record: CC(C)CN1CCN(Cc2ccccc2C(F)(F)F)CC1CCO (stereo unspecified)
result: -6.36

query: Fill in inhibition for record COc1ccc(CCn2c(O)c(C=NC3CC3)c(=O)[nH]c2=O)cc1OC
result: 0.042

query: Give me measured inhibition, please, for this compound: Cc1ccc(-c2nc3ccccc3c(=O)n2-c2ccc(Br)cn2)cc1
result: 43.5

query: Give the value of inhibition reported for the following: Cn1c(C(=O)N2CCC(C(=O)N3CCC4(CC3)OCCO4)CC2)cc2sccc21
result: 1.3

query: Tell me inhibition reported for COC(=O)C1=C(c2ccccc2)C[C@@H]2CC[C@H]1N2C(=O)N1CCCCC1
result: 28.7

----------
assay: growth inhibitors of isogenic TIM10 control yeast, primary screen, counter-screen for tim10-1 yeast inhibitor project, luminescence, uHTS (AID 463195);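 note: wild-type TIM10 isogenic control strain grown at permissive 25 °C; 0% = DMSO yeast wells and 100% = minimal medium wells without yeast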; conditions: S. cerevisiae TIM10 strain growth, BacTiter-Glo luminescence, 24 h; at 10 µM; hits give high values
The whole screen tested about 330,000 compounds, of which about 4,600 (1.4%) were called active. Shown is part of a subset that was picked to be rich in actives.
Label fulfilled when inhibition is at or above 10%; otherwise label not fulfilled.

Previously resolved entries follow.
Cc1cc2ccccn2c1C(C[N+](=O)[O-])c1c(F)cccc1Cl (stereo unspecified)	fulfilled
CC(C(=O)Nc1ccc(Cl)cc1Cl)N1CC=C(c2ccccc2)CC1 (stereo unspecified)	fulfilled
O=[N+]([O-])c1cnc2ccc3ccccc3c2c1	not fulfilled
Cc1c(C(=O)O)cccc1-n1c(C)cc(/C=C2\C(=O)NC(=O)N(c3ccc4c(c3)OCO4)C2=O)c1C	not fulfilled

Kindly review the next compound as well.
query: Could you verify whether the entry C/C(CCc1c[nH]c2ccccc12)=N\O shows inhibition of no less than 10%?
result: not fulfilled
